The reader will find reported pIC50 values listed item by item below.
target desc: TrkA (Homo sapiens, UniProt P04629)
Sequence (P04629 33-796): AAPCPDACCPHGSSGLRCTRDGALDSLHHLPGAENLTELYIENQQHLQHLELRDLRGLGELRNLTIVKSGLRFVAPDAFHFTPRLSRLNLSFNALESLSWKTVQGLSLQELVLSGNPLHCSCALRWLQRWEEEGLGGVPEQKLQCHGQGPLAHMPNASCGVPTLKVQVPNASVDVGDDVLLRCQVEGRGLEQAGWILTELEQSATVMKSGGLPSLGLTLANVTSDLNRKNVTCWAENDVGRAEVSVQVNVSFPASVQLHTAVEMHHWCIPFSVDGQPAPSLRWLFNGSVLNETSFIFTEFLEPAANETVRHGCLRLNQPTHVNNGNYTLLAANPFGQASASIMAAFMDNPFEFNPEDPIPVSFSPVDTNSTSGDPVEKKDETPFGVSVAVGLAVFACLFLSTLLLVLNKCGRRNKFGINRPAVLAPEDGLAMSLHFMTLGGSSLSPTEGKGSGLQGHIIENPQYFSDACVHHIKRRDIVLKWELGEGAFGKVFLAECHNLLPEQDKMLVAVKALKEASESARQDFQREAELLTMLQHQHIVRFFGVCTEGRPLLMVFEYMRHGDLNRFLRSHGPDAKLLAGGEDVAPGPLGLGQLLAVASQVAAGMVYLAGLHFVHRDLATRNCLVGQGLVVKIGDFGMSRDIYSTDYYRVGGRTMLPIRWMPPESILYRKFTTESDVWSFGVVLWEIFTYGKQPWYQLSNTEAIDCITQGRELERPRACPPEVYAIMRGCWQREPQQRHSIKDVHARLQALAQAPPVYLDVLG
measurement notes: HTRF KinEASE kinase assay, recombinant Human TRK enzyme, TrkA (NTRK1)
condition parameters: NTRK1 4 nM, read-out: TrkA Enz
Interpret pIC50 as the negative base-10 log of the concentration measured in mol/L.

Here is how some molecules turned out for pIC50.
- CSc1cc(F)cc([C@H]2C[C@H](F)CN2c2ccc3ncc(C(=O)NC4CN(Cc5ccc(F)c(O)c5)C4)n3n2)c1 [Example 19]: 8.61
- CSc1cc(F)cc([C@H]2CCCN2c2ccc3ncc(C(=O)N[C@H]4CCN(Cc5ccc(F)c(O)c5)C4)n3n2)c1 [Example 15]: 8.31
- CSc1cc(F)cc([C@H]2C[C@H](F)CN2c2ccc3ncc(C(=O)NC4CCN(Cc5cccc(O)c5)CC4)n3n2)c1 [Example 22]: 8.85

Quick one: pIC50 of CSc1ccc(F)cc1[C@H]1CCCN1c1ccc2ncc(C(=O)N[C@H]3CCN(Cc4ccc(F)c(O)c4)C3)n2n1 [Example 2] ?
8.75

# query: pIC50 of entry CSc1cc(F)cc([C@H]2C[C@H](F)CN2c2ccc3ncc(C(=O)N[C@H]4CCN(Cc5ccc(F)c(O)c5)C4)n3n2)c1 [Example 18]
8.54

====

target desc: TrkA (Homo sapiens)
measurement notes: HTRF KinEASE kinase assay, recombinant Human TRK enzyme, TrkA (NTRK1)
condition parameters: NTRK1 4 nM, read-out: TrkA Enz
Consider the cut-off 2 nM. If the recorded IC50 is strictly smaller, the label is t; if not, the label is f.

- CSc1ccc(F)cc1[C@H]1C[C@H](F)CN1c1ccc2ncc(C(=O)NC3CN(Cc4ccc(F)c(O)c4)C3)n2n1: t
- CSc1ccc(F)cc1[C@H]1CCCN1c1ccc2ncc(C(=O)NC3CN(Cc4ccc(F)c(O)c4)C3)n2n1: t
- CCOC(=O)c1cccc(CN2CC[C@H](NC(=O)c3cnc4ccc(N5C[C@@H](F)C[C@@H]5c5cc(F)ccc5SC)nn34)C2)c1: t

Hi there! Is IC50 for CO[C@H]1CN(Cc2ccc(F)c(O)c2)C[C@@H]1NC(=O)c1cnc2ccc(N3C[C@@H](F)C[C@@H]3c3cc(F)cc(SC)c3)nn12 below 2 nM, do you know?
f

Does CSc1cc(F)cc([C@H]2C[C@H](F)CN2c2ccc3ncc(C(=O)NC4CCN(Cc5ccc(F)c(O)c5)CC4)n3n2)c1 have IC50 strictly under 2 nM?
t

====

Quick reference for IC50 among some compounds
target desc: TrkB (Homo sapiens, UniProt Q16620)
Sequence (Q16620 32-822): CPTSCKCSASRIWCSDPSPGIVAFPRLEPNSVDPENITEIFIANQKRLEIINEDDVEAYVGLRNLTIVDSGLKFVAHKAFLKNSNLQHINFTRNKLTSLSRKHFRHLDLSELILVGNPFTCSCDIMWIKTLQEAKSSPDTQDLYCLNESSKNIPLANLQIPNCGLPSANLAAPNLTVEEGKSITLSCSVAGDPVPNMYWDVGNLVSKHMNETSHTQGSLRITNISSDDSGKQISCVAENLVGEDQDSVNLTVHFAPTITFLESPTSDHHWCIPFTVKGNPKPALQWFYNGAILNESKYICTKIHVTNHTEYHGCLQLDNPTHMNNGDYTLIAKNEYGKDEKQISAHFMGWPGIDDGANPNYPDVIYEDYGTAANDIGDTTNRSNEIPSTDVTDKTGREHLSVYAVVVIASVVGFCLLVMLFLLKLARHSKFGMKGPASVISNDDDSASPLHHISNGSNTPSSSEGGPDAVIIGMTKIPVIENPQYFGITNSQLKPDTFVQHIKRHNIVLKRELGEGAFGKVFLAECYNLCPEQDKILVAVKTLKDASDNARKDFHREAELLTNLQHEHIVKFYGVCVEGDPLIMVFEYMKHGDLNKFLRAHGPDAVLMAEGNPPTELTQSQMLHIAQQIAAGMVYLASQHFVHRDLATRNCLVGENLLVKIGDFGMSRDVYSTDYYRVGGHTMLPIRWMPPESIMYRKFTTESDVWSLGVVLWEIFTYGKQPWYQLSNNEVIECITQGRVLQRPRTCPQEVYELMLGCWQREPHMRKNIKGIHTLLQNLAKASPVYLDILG
measurement notes: HTRF KinEASE kinase assay, recombinant Human TRK enzyme, TrkB (NTRK2)
condition parameters: NTRK2 1 nM, read-out: TrkB Enz
Your answer is read as nM, so omit the unit and give the number.

Consider the following illustrative entries.
- CSc1ccc(F)cc1[C@H]1C[C@H](F)CN1c1ccc2ncc(C(=O)N[C@H]3CCN(Cc4cccc(O)c4)C3)n2n1: 1.51
- CSc1cc(F)cc([C@H]2C[C@H](F)CN2c2ccc3ncc(C(=O)N[C@H]4COCCN(Cc5ccc(F)c(O)c5)C4)n3n2)c1 (single isomer, unassigned): 11.4
- CSc1cc(F)cc([C@H]2C[C@H](F)CN2c2ccc3ncc(C(=O)N[C@H]4CCN(C(=O)c5cccc(O)c5)C4)n3n2)c1: 1.01
- CCCCC(=O)Oc1cccc(CN2CC[C@H](NC(=O)c3cnc4ccc(N5C[C@@H](F)C[C@@H]5c5cc(F)ccc5SC)nn34)C2)c1: 8.76
- CO[C@H]1CN(Cc2ccc(F)c(O)c2)C[C@@H]1NC(=O)c1cnc2ccc(N3C[C@@H](F)C[C@@H]3c3cc(F)cc(SC)c3)nn12: 10.3
- CSc1ccc(F)cc1[C@H]1C[C@H](F)CN1c1ccc2ncc(C(=O)NCc3ccc(F)c(O)c3)n2n1: 0.57

# next compound below
Reported IC50 for CSc1cc(F)cc([C@H]2C[C@H](F)CN2c2ccc3ncc(C(=O)NC4CN(Cc5cccc(O)c5)C4)n3n2)c1 : what is it?
3.76
